B1: Pistol ribozyme (parent)
chain: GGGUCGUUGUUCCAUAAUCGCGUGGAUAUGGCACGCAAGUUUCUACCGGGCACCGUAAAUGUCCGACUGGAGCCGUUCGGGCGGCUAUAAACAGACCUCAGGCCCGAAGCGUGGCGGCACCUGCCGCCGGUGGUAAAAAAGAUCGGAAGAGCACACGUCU

variants of: B1; assay: aptazyme ON/OFF ratio, guanine; higher = stronger switching; co-transcriptional cleavage with and without guanine
TEST READOUT: aptazyme ON/OFF ratio

IN: Look up aptazyme ON/OFF ratio: U7C U8G G9U U10G U11A C12G C13A
OUT: 1.15

IN: What aptazyme ON/OFF ratio value was documented for this variant, U7A U10A U11G C12G ?
OUT: 1.45

IN: Record request: aptazyme ON/OFF ratio value, item U7C U8C G9U U10A U11G C12A
OUT: 1.2

IN: # aptazyme ON/OFF ratio lookup, item U7C U8A G9C U10A U11A
OUT: 1.27

IN: So what's the measured aptazyme ON/OFF ratio for this one? U7C G9C U10G U11A C13A
OUT: 1.17

IN: What value of measured aptazyme ON/OFF ratio is listed for U7C U8G G9A U10A U11C C12A C13U ?
OUT: 1.17

IN: Requested field: aptazyme ON/OFF ratio. Item: U7C U8A U10C C12U C13A
OUT: 1.17

IN: May I ask what aptazyme ON/OFF ratio has been recorded for U7C U8G U11A C12G C13U ?
OUT: 1.09

IN: Return reported aptazyme ON/OFF ratio; argument: U10C U11C C12U
OUT: 1.08

IN: What value of measured aptazyme ON/OFF ratio is listed for U7C U8C U11C C12G C13G ?
OUT: 1.31

IN: Any idea what aptazyme ON/OFF ratio was measured for U8A G9C U10A U11A C12G ?
OUT: 1.37
